# assay-comment: Half life in cynomolgus monkey at 1 mg/kg, iv
# Type: ADME, organism-based, Macaca fascicularis
# Parameters: dose 1 mg/kg, route intravenous
# experimental-setup: in vivo
assay-readout: half-life (h)
Quick reminder: number only, in h, skip the unit.

The reported half-life of the compound `CC[C@@H]1C[C@]1(NC(=O)[C@@H]1C[C@@H](Oc2cc(-c3csc(NC(C)C)n3)nc3c(Cl)c(OCCN4CCOCC4)ccc23)CN1C(=O)[C@@H](NC(=O)O[C@@H]1C[C@@H]2C[C@@H]2C1)C(C)(C)C)C(=O)O` was 3.9

----------
# assay-comment: Half life in rat at 1 mg/kg, iv
# Assay type: ADME, organism-based
# Design: dose 1 mg/kg, route intravenous
# experimental-setup: in vivo
assay-readout: half-life (min)
Quick reminder: number only, in min, skip the unit.

The reported half-life of the molecule CC[C@@H]1C[C@]1(NC(=O)[C@@H]1C[C@@H](Oc2cc(-c3csc(NC(C)C)n3)nc3c(Cl)c(OCCN4CCOCC4)ccc23)CN1C(=O)[C@@H](NC(=O)O[C@@H]1C[C@@H]2C[C@@H]2C1)C(C)(C)C)C(=O)O [VEDROPREVIR] was 37.2

----------
# assay-comment: Cmax in rat at 4 mg/kg, po
# Assay type: ADME, organism-based
# Parameters: dose 4 mg/kg, route oral
# experimental-setup: in vivo
assay-readout: Cmax (nM)
Quick reminder: number only, in nM, skip the unit.

The reported Cmax of the compound CC[C@@H]1C[C@]1(NC(=O)[C@@H]1C[C@@H](Oc2cc(-c3csc(NC(C)C)n3)nc3c(Cl)c(OCCN4CCOCC4)ccc23)CN1C(=O)[C@@H](NC(=O)O[C@@H]1C[C@@H]2C[C@@H]2C1)C(C)(C)C)C(=O)O [VEDROPREVIR] was 576

----------
# assay-comment: Oral bioavailability in cynomolgus monkey at 4 mg/kg
# Type: ADME, organism-based, Macaca fascicularis
# experimental-setup: in vivo
assay-readout: bioavailability
Could you kindly put the unit after your number?

The reported bioavailability of the molecule CC[C@@H]1C[C@]1(NC(=O)[C@@H]1C[C@@H](Oc2cc(-c3csc(NC(C)C)n3)nc3c(Cl)c(OCCN4CCOCC4)ccc23)CN1C(=O)[C@@H](NC(=O)O[C@@H]1C[C@@H]2C[C@@H]2C1)C(C)(C)C)C(=O)O [VEDROPREVIR] was 49%

----------
# assay-comment: Volume of distribution at steady state in rat at 1 mg/kg, iv and 4 mg/kg, po
# Format: ADME, organism-based
# experimental-setup: in vivo, read-out: Vdss
assay-readout: Vd (L/kg)
Quick reminder: number only, in L/kg, skip the unit.

The reported Vd of the compound `CC[C@@H]1C[C@]1(NC(=O)[C@@H]1C[C@@H](Oc2cc(-c3csc(NC(C)C)n3)nc3c(Cl)c(OCCN4CCOCC4)ccc23)CN1C(=O)[C@@H](NC(=O)O[C@@H]1C[C@@H]2C[C@@H]2C1)C(C)(C)C)C(=O)O` was 2.3

----------
# System: Rattus norvegicus
# assay-comment: AUC in rat at 4 mg/kg, po
# Type: ADME, organism-based, Plasma
# Set-up: dose 4 mg/kg, route oral
# experimental-setup: in vivo
assay-readout: AUC (nM·h)
Quick reminder: number only, in nM·h, skip the unit.

Record `CC[C@@H]1C[C@]1(NC(=O)[C@@H]1C[C@@H](Oc2cc(-c3csc(NC(C)C)n3)nc3c(Cl)c(OCCN4CCOCC4)ccc23)CN1C(=O)[C@@H](NC(=O)O[C@@H]1C[C@@H]2C[C@@H]2C1)C(C)(C)C)C(=O)O` ; system Rattus norvegicus; AUC = 1410

Provenance of the data: ChEMBL document CHEMBL2010675
